The reported numbers originate from patent US20020098189A1.

Substrate: F protein of respiratory syncytial virus (RSV-Long strain), on infectious virus (respiratory syncytial virus (RSV-Long strain)) (UniProt P12568)
Sequence (P12568 26-574): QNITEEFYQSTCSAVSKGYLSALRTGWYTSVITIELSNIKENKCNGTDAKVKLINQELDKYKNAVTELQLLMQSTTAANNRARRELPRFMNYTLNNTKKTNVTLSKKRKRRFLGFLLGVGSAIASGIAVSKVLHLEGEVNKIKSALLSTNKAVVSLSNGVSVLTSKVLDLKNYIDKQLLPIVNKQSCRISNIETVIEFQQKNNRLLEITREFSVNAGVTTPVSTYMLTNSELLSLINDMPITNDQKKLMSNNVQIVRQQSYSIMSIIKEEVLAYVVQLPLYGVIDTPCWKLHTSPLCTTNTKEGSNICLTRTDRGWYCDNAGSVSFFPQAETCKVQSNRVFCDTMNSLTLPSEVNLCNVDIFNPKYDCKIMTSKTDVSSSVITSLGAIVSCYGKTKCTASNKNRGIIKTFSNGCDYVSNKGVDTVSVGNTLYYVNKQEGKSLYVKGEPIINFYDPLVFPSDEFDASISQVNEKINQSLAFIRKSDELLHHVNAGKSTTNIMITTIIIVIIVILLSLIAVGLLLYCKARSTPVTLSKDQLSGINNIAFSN
experiment summary: cell-based or functional assay
quantity measured: Mean IC50 (Control) µg/ml, RSV microneutralization (µg/mL)
Please reply with the bare figure in µg/mL and do not write the unit itself.

Take a look at these entries with their results.
Clone 19 (IgG) (antibody, V domains shown) VH: QVTLRESGPALVKPTQTLTLTCTFSGFSLSTAGMSVGWIRQPPGKALEWLADIWWDDKKHYNPSLKDRLTISKDTSKNQVVLKVTNMDPADTATYYCARDMIFNFYFDVWGQGTTVTVSS VL: DIQMTQSPSTLSASVGDRVTITCSASSRVGYMHWYQQKPGKAPKLLIYDTFFLDSGVPSRFSGSGSGTEFTLTISSLQPDDFATYYCFQGSGYPFTFGGGTKVEIKR | 0.0154
Clone 24 (IgG) (antibody, V domains shown) VH: QVTLRESGPALVKPTQTLTLTCTFSGFSLSTAGMSVGWIRQPPGKALEWLADIWWDGKKHYNPSLKDRLTISKDTSKNQVVLKVTNMDPADTATYYCARDMIFNWYFDVWGQGTTVTVSS VL: DIQMTQSPSTLSASVGDRVTITCSLSSRVGYMHWYQQKPGKAPKLLIYDTFKLSSGVPSRFSGSGSGTEFTLTISSLQPDDFATYYCFQGSGYPFTFGGGTKVEIKR | 0.0645
Clone 22 (IgG) (antibody, V domains shown) VH: QVTLRESGPALVKPTQTLTLTCTFSGFSLSTPGMSVGWIRQPPGKALEWLADIWWDDKKHYNPSLKDRLTISKDTSKNQVVLKVTNMDPADTATYYCARDMIFNFYFDVWGQGTTVTVSS VL: DIQMTQSPSTLSASVGDRVTITCSLSSRVGYMHWYQQKPGKAPKLLIYDTRGLPSGVPSRFSGSGSGTEFTLTISSLQPDDFATYYCFQGSGYPFTFGGGTKVEIKR | 0.0235
Clone 27 (Fab) (Fab, V domains shown) VH: QVTLRESGPALVKPTQTLTLTCTFSGFSLSTAGMSVGWIRQPPGKALEWLADIWWDGKKSYNPSLKSRLTISKDTSKNQVVLKVTNMDPADTATYYCARDMIFNFYFDVWGQGTTVTVSS VL: DIQMTQSPSTLSASVGDRVTITCLPSSRVGYMHWYQQKPGKAPKLLIYDTMYQSSGVPSRFSGSGSGTEFTLTISSLQPDDFATYYCFQGSGYPFTFGGGTKVEIK | 0.0171

Now take the following binder into account.
In: Returns the measured Mean IC50 (Control) µg/ml, RSV microneutralization for the input binder. Input: Clone 23 (IgG) (antibody, V domains shown) VH: QVTLRESGPALVKPTQTLTLTCTFSGFSLSTPGMSVGWIRQPPGKALEWLADIWWDGKKHYNPSLKDRLTISKDTSKNQVVLKVTNMDPADTATYYCARDMIFNWYFDVWGQGTTVTVSS VL: DIQMTQSPSTLSASVGDRVTITCSPSSRVGYMHWYQQKPGKAPKLLIYDTMRLASGVPSRFSGSGSGTEFTLTISSLQPDDFATYYCFQGSGYPFTFGGGTKVEIKR
Out: 0.0289
